Ref: patent US20240108006A1

# System: Euschistus heros
# Protocol summary: Example B3: Euschistus heros (neotropical brown stink bug), soybean leaves, N2 nymphs
# Assay type: in vivo
# Stated conditions: 120 h, application rate of 200 ppm, 5 days after infestation, read-out: control in at least one of the two categories (mortality or growth inhibition)
Measured percent control (mortality or growth inhibition) at 200 ppm, listed per entry for reference.
Measurement type: percent control (mortality or growth inhibition) at 200 ppm

{"columns": ["Molecule", "Observed value"],
 "data": [
  ["C[C@H](NC(=O)N(C)c1cnc(C(F)(F)F)cc1Br)c1ncnn1-c1ncccn1 [Example P273]", "≥ 80%"],
  ["C[C@H](NC(=O)N(C)c1cnc(C(F)(F)F)cc1Cl)c1ncnn1-c1ncccn1 [Example P235]", "≥ 80%"],
  ["CC(NC(=O)Nc1ccc(C(F)(F)F)cc1C(F)(F)F)c1ncnn1-c1ncccn1 (centres unmarked) [Example P1]", "≥ 80%"],
  ["C[C@H](NC(=O)N1CCc2cc(C(F)(F)F)ncc21)c1ncnn1-c1ncccn1 [Example P172]", "≥ 80%"],
  ["C[C@H](NC(=O)Nc1cc(C(F)(F)F)c(Cl)cc1Br)c1nccnc1-c1ccc(C#N)cn1 [Example P246]", "≥ 80%"],
  ["Cc1cc(C(F)(F)F)ncc1NC(=O)N[C@@H](C)c1ncnn1-c1ncccn1 [Example P328]", "≥ 80%"],
  ["C[C@H](NC(=O)Nc1ccc(F)cc1C#N)c1ncnn1-c1ncccn1 [Example P62]", "≥ 80%"],
  ["C[C@H](NC(=O)Nc1cc(OC(F)(F)C(F)F)c(Cl)cc1Cl)c1ncnn1-c1ccc(=O)n(C)n1 [Example P269]", "≥ 80%"]
]}
